Data origin: PubChem BioAssay (NCI)

# Test system: PC-3 prostate
# Assay Procedure: NCI tumour cell line growth inhibition, 48 h; in the data active = GI50 below about 0.43 µM; inactive = the rest
Labels: YES (active), NO (inactive)

{"columns": ["Compound", "Classification"],
 "data": [
  ["CN(C)CCCNC(=O)c1ccc2oc3cc4ccccc4c(=O)n3c2c1", "NO"],
  ["C/C1=C/C(=O)O[C@@H]2C[C@@H](CC[C@H](C)/C=C\\C=C\\CC1)O[C@@](O)([C@@H]1CSC(=O)N1CO)C2", "YES"],
  ["CCOC(CCCNCCCn1c2c(c3cc(OC)c(OC)cc3c1=O)C(=O)c1cc3c(cc1-2)OCO3)OCC", "NO"],
  ["C[C@@H](N)C1CCC(C(=O)Nc2ccncc2)CC1 (some centres undefined)", "NO"],
  ["Cc1ccc2c(c1)C(C)Cc1c(ncnc1-n1cnc3cc(C)ccc31)N2C (centres undefined)", "YES"],
  ["CCN(CC)CCCC(C)Nc1cc(-c2ccc(C(F)(F)F)cc2)c(C#N)c2nc3ccccc3n12 (centres undefined)", "NO"],
  ["O=C1/C(=C\\c2ccc(F)cc2)CN(C(=O)c2ccc([N+](=O)[O-])cc2)C/C1=C\\c1ccc(F)cc1", "NO"],
  ["CCCCCCCCCCCCNC(=O)[C@H]1CSC(c2cc3ccccc3s2)N1 (some centres undefined)", "NO"],
  ["CC(C)CCSC1=CC(=O)c2ccccc2C1=O", "NO"],
  ["O=C(N/N=C/c1ccccc1O)C(O)(c1ccccc1)c1ccccc1", "NO"],
  ["O=Nc1ccc(O)c2ccccc12", "NO"],
  ["Cc1cccc(-c2nn3c(c2-c2ccnc4ccc(C(N)=O)cc24)CCC3)n1", "NO"],
  ["O=C(NCCc1ccccc1)C(c1ccccc1)(c1ccccc1)c1ccccc1", "NO"],
  ["COc1ccc(-c2nsc3c2NC(=O)CC3c2ccc(F)cc2)cc1 (centres undefined)", "NO"]
]}

---

# Test system: UACC-257 melanoma
# Assay Procedure: NCI tumour cell line growth inhibition, 48 h
Metric Name: GI50

{"columns": ["Compound", "Result"],
 "data": [
  ["CN(C)CCCNC(=O)c1ccc2oc3cc4ccccc4c(=O)n3c2c1", "20.6 µM"],
  ["Cc1ccc(S(=O)(=O)Oc2ccc([N+](=O)[O-])cc2[N+](=O)[O-])cc1", "2.77 µM"],
  ["COC(=O)[C@@]1(Cc2ccccc2)[C@H]2c3cc(C(=O)N4CCCC4)n(Cc4ccc(OC)c(OC)c4)c3C[C@H]2CN1C(=O)c1ccccc1", "7.72 µM"],
  ["COc1cccc(Cn2c(-c3nonc3N)nc3ccccc32)c1", "0.314 µM"],
  ["COc1c2c3ccccc3nc-2n(C)c2ccccc12", "21.9 µM"],
  ["CCN(CC)CCCC(C)Nc1cc(-c2ccc(C(F)(F)F)cc2)c(C#N)c2nc3ccccc3n12 (centres undefined)", "2.08 µM"],
  ["CCN(CC)c1ccc(C2CC(c3cc(OC)c(OC)c(OC)c3)=NN2)cc1 (centres undefined)", "20.2 µM"],
  ["CCOC(=O)C(Cc1c[nH]c2ccc([N+](=O)[O-])cc12)(NC(C)=O)C(=O)OCC", "> 1000 µM"],
  ["C=C(C)[C@@H]1CC[C@]2(C(N)=O)CC[C@]3(C)[C@H](CC[C@@H]4[C@@]5(C)CC[C@H](O)C(C)(C)[C@@H]5CC[C@]43C)[C@@H]12", "13.2 µM"]
]}
